# measured-target: rat TRPV1 D646N mutant (Rattus norvegicus, UniProt O35433, D646N)
# assay-comment: CAPS-evoked 45Ca2+ influx in cells expressing the TRPV1 D646N point mutant
# measurement-parameters: read-out: IC50, 45Ca2+ influx, 4 μM CAPS
property: pIC50
The read-out pIC50 is expressed as -log10 of concentration in moles per litre.

compound	pIC50
N.N.N.N.N.N.N.N.N.N.N.N.N.N.[Cl-].[Cl-].[Cl-].[Cl-].[Cl-].[Cl-].[O-2].[O-2].[Ru+3].[Ru+3].[Ru+4] [RuRed, Ruthenium Red, reference compound]	4.89

Alright, here's another compound for you.
Input line: Give reported pIC50 value for [Co+2]
Output line: 4.59
